target: Human PI3K gamma (Homo sapiens, UniProt P48736); construct: His (N); host or cells: SF9 insect cells (baculovirus); test: Human PI3K gamma enzyme assay (HTRF); type: biochemical; settings: concentration not given; b1389 states 1.0 μM for PI3K δ and γ; read-out: p110 gamma Percent Inhibition
Sequence (P48736 whole entry): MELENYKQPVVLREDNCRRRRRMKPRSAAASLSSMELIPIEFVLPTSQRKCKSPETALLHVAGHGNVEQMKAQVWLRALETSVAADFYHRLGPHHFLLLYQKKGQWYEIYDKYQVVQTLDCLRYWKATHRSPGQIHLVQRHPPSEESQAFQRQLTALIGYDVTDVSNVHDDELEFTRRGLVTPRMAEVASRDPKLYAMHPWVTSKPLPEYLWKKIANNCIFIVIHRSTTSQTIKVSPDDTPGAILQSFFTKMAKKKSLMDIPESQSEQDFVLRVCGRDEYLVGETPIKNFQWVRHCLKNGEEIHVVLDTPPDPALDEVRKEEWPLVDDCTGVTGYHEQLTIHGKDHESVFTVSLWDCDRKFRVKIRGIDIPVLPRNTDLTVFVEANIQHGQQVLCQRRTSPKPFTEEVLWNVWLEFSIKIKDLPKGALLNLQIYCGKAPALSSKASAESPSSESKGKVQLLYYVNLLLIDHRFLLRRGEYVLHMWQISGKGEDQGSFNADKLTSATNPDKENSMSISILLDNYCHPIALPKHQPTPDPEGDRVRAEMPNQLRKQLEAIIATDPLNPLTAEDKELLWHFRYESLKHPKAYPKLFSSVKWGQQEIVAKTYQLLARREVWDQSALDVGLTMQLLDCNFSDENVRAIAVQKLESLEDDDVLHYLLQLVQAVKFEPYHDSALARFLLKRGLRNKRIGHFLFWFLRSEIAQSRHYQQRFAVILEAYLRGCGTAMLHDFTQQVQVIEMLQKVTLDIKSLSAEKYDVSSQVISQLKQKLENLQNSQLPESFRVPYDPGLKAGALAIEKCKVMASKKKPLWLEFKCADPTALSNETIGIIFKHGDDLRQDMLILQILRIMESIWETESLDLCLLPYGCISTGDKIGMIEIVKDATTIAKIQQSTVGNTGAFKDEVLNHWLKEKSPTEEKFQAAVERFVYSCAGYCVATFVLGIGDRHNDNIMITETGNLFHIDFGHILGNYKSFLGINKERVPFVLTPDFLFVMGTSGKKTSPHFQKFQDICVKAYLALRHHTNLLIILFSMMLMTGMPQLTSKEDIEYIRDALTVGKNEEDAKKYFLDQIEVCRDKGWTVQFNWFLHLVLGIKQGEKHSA
measurement kind: inhibition at 1 µM (%)

As a guide, the following entries are already answered.
# molecule, inhibition at 1 µM / %
data = [
    ("OC(c1ccc(F)cc1F)c1cc(-c2ccncc2)sc1-c1nnc[nH]1 (stereo not drawn)", 33),
    ("CC(=O)Nc1cc(-c2sc(-c3nnc[nH]3)c(C(O)c3ccc(Cl)cc3)c2C#N)ccn1 (stereo not drawn)", 14),
    ("CC(=O)Nc1cc(-c2cc(C(c3ccc(Cl)cc3)N(C)C3CN(C)C3)c(-c3nnc[nH]3)s2)ccn1 (stereo not drawn)", 20),
]

P. Cc1ccc(C(O)c2cc(-c3ccncc3)sc2-c2nnc[nH]2)c(C)c1 (stereo not drawn)
Q. CC(=O)Nc1cc(-c2cc(C(OCC3CNC3)c3ccc(Cl)cc3)c(-c3nnc[nH]3)s2)ccn1 (stereo not drawn)
R. N#Cc1c(N2CCOCC2)sc(C(=O)O)c1C(N)c1ccc2ccccc2c1 (stereo not drawn)
S. CC(=O)Nc1cc(-c2cc(C(c3ccc(Cl)cc3)N3CCC(CN)C3)c(-c3nnc[nH]3)s2)ccn1 (stereo not drawn)
Qu. hey, can you rank those molecules up there by inhibition at 1 µM? biggest number first please Please list the labels in the order you were asked to rank them.
Ans. R, Q, S, P

---

biological target: Human PI3K beta (Homo sapiens, UniProt P42338); construct: His (N); host or cells: SF9 insect cells (baculovirus); experiment: Human PI3K beta enzyme assay (HTRF); type: biochemical; conditions: concentration not given; b1387 states 1.1 μM for PI3K α and β; read-out: p110 beta Percent Inhibition
Sequence (P42338 whole entry, one chain of several): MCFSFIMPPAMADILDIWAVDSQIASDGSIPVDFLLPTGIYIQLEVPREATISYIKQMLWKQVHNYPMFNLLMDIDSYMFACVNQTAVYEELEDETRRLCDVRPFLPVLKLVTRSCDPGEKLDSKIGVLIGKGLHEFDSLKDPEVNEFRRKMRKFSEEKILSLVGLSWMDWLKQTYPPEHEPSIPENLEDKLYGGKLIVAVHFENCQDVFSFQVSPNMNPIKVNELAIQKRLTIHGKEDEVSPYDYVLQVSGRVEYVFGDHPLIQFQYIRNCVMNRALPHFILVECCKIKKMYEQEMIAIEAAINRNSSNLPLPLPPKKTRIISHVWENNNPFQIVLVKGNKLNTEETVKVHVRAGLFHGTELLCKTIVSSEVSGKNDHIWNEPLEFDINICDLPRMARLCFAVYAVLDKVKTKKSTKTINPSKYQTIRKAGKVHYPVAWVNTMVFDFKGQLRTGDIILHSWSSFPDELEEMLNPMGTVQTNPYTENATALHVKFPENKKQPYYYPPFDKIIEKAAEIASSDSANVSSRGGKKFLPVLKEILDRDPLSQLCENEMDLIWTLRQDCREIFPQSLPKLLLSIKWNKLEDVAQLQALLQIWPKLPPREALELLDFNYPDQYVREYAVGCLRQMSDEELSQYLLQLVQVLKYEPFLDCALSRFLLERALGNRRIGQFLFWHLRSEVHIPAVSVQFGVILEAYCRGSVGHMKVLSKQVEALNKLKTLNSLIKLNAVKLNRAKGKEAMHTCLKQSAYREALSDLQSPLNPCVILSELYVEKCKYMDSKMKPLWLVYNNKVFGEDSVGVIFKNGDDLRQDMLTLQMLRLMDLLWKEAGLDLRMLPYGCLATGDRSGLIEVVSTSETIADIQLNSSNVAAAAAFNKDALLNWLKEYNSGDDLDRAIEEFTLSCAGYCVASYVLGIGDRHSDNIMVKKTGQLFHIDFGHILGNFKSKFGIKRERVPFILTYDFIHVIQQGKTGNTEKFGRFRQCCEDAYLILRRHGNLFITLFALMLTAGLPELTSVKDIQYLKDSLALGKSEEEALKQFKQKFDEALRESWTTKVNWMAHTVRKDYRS
measurement kind: inhibition at 1.1 µM (%)

# compound, experimental result
rows = [
    ("CC(=O)NC(c1ccc(Cl)cc1)c1c(C(=O)O)sc(N2CCOCC2)c1C#N (stereo not shown)", 87),
    ("COc1ccc(C(O)c2cc(-c3ccncc3)sc2-c2nnc[nH]2)c(F)c1 (stereo not shown)", 99),
    ("CC(=O)Nc1cc(-c2nc(Cc3ccc4ccccc4c3)c(C(=O)O)s2)ccn1", 100),
    ("CC(=O)Nc1cc(-c2cc(C(NCCO)c3ccc(Cl)cc3)c(-c3nnc[nH]3)s2)ccn1 (stereo not shown)", 98),
]

---

Target: Human PI3K alpha (Homo sapiens)
Construct: His (N); host or cells: SF9 insect cells (baculovirus)
Sequence (P42336 whole entry): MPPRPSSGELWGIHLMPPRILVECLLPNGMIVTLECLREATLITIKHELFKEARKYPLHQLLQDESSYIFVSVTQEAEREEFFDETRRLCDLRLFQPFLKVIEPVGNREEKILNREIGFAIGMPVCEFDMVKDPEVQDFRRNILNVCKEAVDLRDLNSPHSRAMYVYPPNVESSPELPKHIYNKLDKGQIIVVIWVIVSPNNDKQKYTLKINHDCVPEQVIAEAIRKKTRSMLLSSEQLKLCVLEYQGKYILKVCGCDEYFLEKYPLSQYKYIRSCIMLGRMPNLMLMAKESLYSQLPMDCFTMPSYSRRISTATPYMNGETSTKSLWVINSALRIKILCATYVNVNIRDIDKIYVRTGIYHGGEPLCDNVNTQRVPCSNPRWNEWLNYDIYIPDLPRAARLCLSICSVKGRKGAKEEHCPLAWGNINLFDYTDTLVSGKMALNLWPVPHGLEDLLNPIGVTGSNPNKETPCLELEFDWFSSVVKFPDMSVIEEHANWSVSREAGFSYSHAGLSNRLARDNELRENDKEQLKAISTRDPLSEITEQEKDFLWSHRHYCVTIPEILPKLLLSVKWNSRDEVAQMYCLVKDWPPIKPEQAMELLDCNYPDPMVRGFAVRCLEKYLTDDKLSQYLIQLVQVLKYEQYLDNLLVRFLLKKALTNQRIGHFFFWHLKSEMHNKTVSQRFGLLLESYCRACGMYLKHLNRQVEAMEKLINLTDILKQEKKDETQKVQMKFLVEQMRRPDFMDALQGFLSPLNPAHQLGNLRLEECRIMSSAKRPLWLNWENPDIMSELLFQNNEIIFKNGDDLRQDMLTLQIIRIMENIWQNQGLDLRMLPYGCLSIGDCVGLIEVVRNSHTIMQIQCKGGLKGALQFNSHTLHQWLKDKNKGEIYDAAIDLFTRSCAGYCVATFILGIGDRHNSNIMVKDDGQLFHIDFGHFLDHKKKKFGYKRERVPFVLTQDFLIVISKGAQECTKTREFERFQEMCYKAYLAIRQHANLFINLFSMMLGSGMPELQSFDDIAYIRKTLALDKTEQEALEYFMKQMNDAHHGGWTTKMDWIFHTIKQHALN
Sequence (P27986 whole entry partner): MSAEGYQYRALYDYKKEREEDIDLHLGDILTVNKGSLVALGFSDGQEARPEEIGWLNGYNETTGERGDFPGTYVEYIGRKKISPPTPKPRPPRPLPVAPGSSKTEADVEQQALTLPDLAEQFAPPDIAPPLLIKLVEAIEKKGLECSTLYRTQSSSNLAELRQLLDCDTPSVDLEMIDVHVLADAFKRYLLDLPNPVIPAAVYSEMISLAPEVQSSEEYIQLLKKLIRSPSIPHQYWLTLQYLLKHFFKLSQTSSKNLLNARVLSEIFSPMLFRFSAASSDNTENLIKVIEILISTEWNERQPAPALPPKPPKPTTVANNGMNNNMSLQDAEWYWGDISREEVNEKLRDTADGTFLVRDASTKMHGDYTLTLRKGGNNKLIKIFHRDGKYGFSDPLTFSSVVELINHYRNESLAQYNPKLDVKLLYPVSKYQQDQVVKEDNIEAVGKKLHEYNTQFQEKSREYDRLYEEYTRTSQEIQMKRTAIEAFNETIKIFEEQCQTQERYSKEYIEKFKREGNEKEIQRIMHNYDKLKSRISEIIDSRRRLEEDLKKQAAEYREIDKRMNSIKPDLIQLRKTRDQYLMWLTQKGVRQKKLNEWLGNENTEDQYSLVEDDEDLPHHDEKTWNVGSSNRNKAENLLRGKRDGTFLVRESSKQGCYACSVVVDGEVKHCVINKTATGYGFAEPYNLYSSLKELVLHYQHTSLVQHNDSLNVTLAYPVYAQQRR
Experiment: Human PI3K alpha enzyme assay (HTRF)
Format: biochemical
Settings: concentration not given; b1387 states 1.1 μM for PI3K α and β; read-out: p110 alpha Percent Inhibition
Description: The catalytic subunits of PI3Ks are cloned into either pDEST8(p110 alpha) or pDEST10(p110beta, p110delta, and p110gamma) as N-terminal His tagged fusion proteins using the Gateway system (Invitrogen, catalog#11804-010 for pDEST8 and 11806-015 for pDEST10). […] For the assay methods described above, test compound percent inhibition, at various concentrations, is calculated relative to control (DMSO and EDTA) treated samples. […]
measurement kind: inhibition at 1.1 µM (%)

As a guide, the following entries are already answered.
# molecule, unit descriptor, inhibition at 1.1 µM
rows = [
    ("OC(c1ccc(F)cc1Cl)c1cc(-c2ccncc2)sc1-c1nnc[nH]1 (centres unmarked)", "%", 32),
    ("CC(C)(C)[S+]([O-])NC(c1ccc(Cl)c(Cl)c1)c1c(C(=O)O)sc(N2CCOCC2)c1C#N (centres unmarked)", "%", 34),
    ("CC(=O)Nc1cc(-c2cc(C(c3ccc(Cl)cc3)N3CC4(COC4)C3)c(-c3nnc[nH]3)s2)ccn1 (centres unmarked)", "%", 83),
    ("Cc1ccc(C(O)c2cc(-c3ccncc3)sc2-c2nnc[nH]2)s1 (centres unmarked)", "%", 35),
    ("N#Cc1c(N2CCOCC2)sc(C(=O)O)c1Cc1ccc2cc(F)ccc2c1", "%", 97),
]

1. COc1ccc(C(O)c2cc(-c3ccncc3)sc2-c2nnc[nH]2)cn1 (centres unmarked)
2. NC(=O)c1ccc2ccc(Cc3nc(N4CCOCC4)sc3C(=O)O)cc2c1
3. OC(c1ccccc1Cl)c1cc(-c2ccncc2)sc1-c1nnc[nH]1 (centres unmarked)
4. CC(=O)Nc1cc(-c2cc(C(N=[N+]=[N-])c3ccc(Cl)cc3)c(-c3nnc[nH]3)s2)ccn1 (centres unmarked)
Qu. hey, can you rank those molecules up there by inhibition at 1.1 µM? biggest number first please Please list the labels in the order you were asked to rank them.
Ans. 4, 1, 3, 2

1. Clc1ccc(C(c2cc(-c3ccnc(Cl)c3)sc2-c2nnc[nH]2)N2CCC2)cc1 (centres unmarked)
2. COc1ccc(C(O)c2cc(-c3ccncc3)sc2-c2nnc[nH]2)cc1F (centres unmarked)
Qu. // pick larger inhibition at 1.1 µM from pair: 1 vs 2 Give the chosen item's label as your response.
Ans. 2

---

Molecular target: Human PI3K beta (Homo sapiens, UniProt P42338)
Construct: His (N); host or cells: SF9 insect cells (baculovirus)
Assay: Human PI3K beta enzyme assay (HTRF)
Format: biochemical
Conditions: concentration not given; b1387 states 1.1 μM for PI3K α and β; read-out: p110 beta Percent Inhibition
Method: The catalytic subunits of PI3Ks are cloned into either pDEST8(p110 alpha) or pDEST10(p110beta, p110delta, and p110gamma) as N-terminal His tagged fusion proteins using the Gateway system (Invitrogen, catalog#11804-010 for pDEST8 and 11806-015 for pDEST10). […] For the assay methods described above, test compound percent inhibition, at various concentrations, is calculated relative to control (DMSO and EDTA) treated samples. […]
measurement kind: inhibition at 1.1 µM (%)

As a guide, the following entries are already answered.
# molecule, system, experimental result
rows = [
    ("CC(c1ccc2cc(F)ccc2c1)c1c(C(=O)O)sc(N2CCOCC2)c1C#N (stereo not shown) [Compound 326]", "Human PI3K beta (Homo sapiens, UniProt P42338)", 108),
    ("COc1ccc2cc(Cc3nc(N4CCOCC4)sc3C(=O)O)ccc2c1 [Compound 288]", "Human PI3K beta (Homo sapiens, UniProt P42338)", 85),
    ("COc1cccc(F)c1C(O)c1cc(-c2ccncc2)sc1-c1nnc[nH]1 (stereo not shown) [Compound 239]", "Human PI3K beta (Homo sapiens, UniProt P42338)", 68),
    ("OC(c1nc(-c2ccccc2)cs1)c1cc(-c2ccncc2)sc1-c1nnc[nH]1 (stereo not shown) [Compound 133]", "Human PI3K beta (Homo sapiens, UniProt P42338)", 101),
    ("CC(=O)Nc1cc(-c2cc(C(c3ccc(Cl)cc3)N3CCOCC3)c(-c3nnc[nH]3)s2)ccn1 (stereo not shown) [Compound 248]", "Human PI3K beta (Homo sapiens, UniProt P42338)", 106),
]

a. CC(=O)Nc1cc(-c2cc(C(c3ccc(Cl)cc3)N3CC[C@@H](O)C3)c(-c3nnc[nH]3)s2)ccn1 (stereo partly shown) [Compound 212]
b. OC(c1ccccc1C(F)(F)F)c1cc(-c2ccncc2)sc1-c1nnc[nH]1 (stereo not shown) [Compound 193]
Qu. // pick larger inhibition at 1.1 µM from pair: a vs b Give the chosen item's label as your response.
Ans. a
(a: 109%, b: 69%)

a. CC(=O)Nc1cc(-c2sc(-c3nnc[nH]3)c([S+]([O-])c3ccc(Cl)cc3)c2C#N)ccn1 (stereo not shown) [Compound 131]
b. CC(=O)Nc1cc(-c2cc(C(c3ccc(Cl)cc3)N3CC(CCN)C3)c(-c3nnc[nH]3)s2)ccn1 (stereo not shown) [Compound 270]
Qu. Of a and b , which carries the smaller reported inhibition at 1.1 µM figure? Give the chosen item's label as your response.
Ans. a

---

target: Human PI3K gamma (Homo sapiens); construct: His (N); host or cells: SF9 insect cells (baculovirus); experiment: Human PI3K gamma enzyme assay (HTRF); format: biochemical; conditions: concentration not given; b1389 states 1.0 μM for PI3K δ and γ; read-out: p110 gamma Percent Inhibition
measurement kind: inhibition at 1 µM (%)

# molecule, experimental result
rows = [
    ("Clc1ccc(C(c2cc(-c3ccnc(Cl)c3)sc2-c2nnc[nH]2)N2CCC2)cc1 (centres unmarked)", 12),
    ("N#Cc1c(N2CCOCC2)sc(C(=O)O)c1Cn1cnc2ccccc2c1=O", 35),
    ("OC(c1ccc(-c2ncccn2)cc1)c1cc(-c2ccncc2)sc1-c1nnc[nH]1 (centres unmarked)", 12),
]

1. N#Cc1c(N2CCOCC2)sc(C(=O)O)c1C(F)(F)c1ccc(Cl)cc1
2. OC(c1ccccc1C(F)(F)F)c1cc(-c2ccncc2)sc1-c1nnc[nH]1 (centres unmarked)
Qu. Of 1 and 2 , which carries the smaller reported inhibition at 1 µM figure? Give the chosen item's label as your response.
Ans. 2
